# study target: MYLK4 (human) (UniProt Q86YV6)
# Sequence (Q86YV6 whole entry, looked up): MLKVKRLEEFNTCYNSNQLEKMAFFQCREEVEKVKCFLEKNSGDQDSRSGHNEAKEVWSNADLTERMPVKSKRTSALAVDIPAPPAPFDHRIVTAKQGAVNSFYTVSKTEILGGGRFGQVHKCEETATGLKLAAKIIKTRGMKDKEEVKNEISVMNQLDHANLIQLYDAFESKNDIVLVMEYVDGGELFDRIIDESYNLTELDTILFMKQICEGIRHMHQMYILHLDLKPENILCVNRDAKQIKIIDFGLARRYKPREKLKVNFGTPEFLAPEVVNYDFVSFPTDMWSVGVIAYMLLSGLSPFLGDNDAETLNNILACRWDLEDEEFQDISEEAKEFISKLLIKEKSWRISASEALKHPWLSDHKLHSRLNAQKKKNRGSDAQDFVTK
# test method notes: KINOMEscan competition binding
# setup conditions: compound 10.0 µM
Overview of reported kinase still bound, per cent of control across a group of molecules:

Worked set:
[[record]]
structure_smiles_string = "Nc1ccc(-c2ccc3ncc4ccc(=O)n(-c5cccc(C(F)(F)F)c5)c4c3c2)cn1"
value_observed = "97%"

[[record]]
structure_smiles_string = "CCOc1cc2ncc(C#N)c(Nc3ccc(OCc4ccccn4)c(Cl)c3)c2cc1NC(=O)/C=C/CN(C)C"
value_observed = "86%"


Query :: Reported kinase still bound, per cent of control for MYLK4 (human) (UniProt Q86YV6), given `COc1cc(C(=O)NC2CCN(C)CC2)ccc1Nc1ncc2c(n1)N(C1CCCC1)CCC(=O)N2C(C)C` ?
Result :: 100%

Query :: Reported kinase still bound, per cent of control for MYLK4 (human) (UniProt Q86YV6), given `Cc1ccc(NC(=O)c2cccc(C(C)(C)C#N)c2)cc1Nc1ccc2ncn(C)c(=O)c2c1` ?
Result :: 100%

Query :: Reported kinase still bound, per cent of control for MYLK4 (human) (UniProt Q86YV6), given `CN(C)C/C=C/C(=O)Nc1cccc(Nc2ncc3c(n2)N(C)c2ccccc2C(=O)N3C)c1` ?
Result :: 86%

###

Overview of reported kinase still bound, per cent of control across a group of molecules:
# study target: PLK4 (human)
# test method notes: KINOMEscan competition binding
# setup conditions: compound 10.0 µM
Note: unit % is implicit; provide only the numeric part.

[[record]]
molecule = "COc1cc(C(=O)NC2CCN(C)CC2)ccc1Nc1ncc2c(n1)N(C1CCCC1)CCC(=O)N2C(C)C"
quantity = "kinase still bound, per cent of control"
value_observed = 100


Query :: Data request, read-out kinase still bound, per cent of control, for `CCC(=O)N1CCN(c2ccc(-n3c(=O)ccc4cnc5ccc(-c6cnc7ccccc7c6)cc5c43)cc2C(F)(F)F)CC1`
Result :: 100

Query :: Data request, read-out kinase still bound, per cent of control, for `O=C(NOC[C@H](O)CO)c1ccc(F)c(F)c1Nc1ccc(I)cc1F`
Result :: 86

Query :: Data request, read-out kinase still bound, per cent of control, for `CC[C@@H]1C(=O)N(C)c2cnc(Nc3ccc(C(=O)NC4CCN(C)CC4)cc3OC)nc2N1C1CCCC1`
Result :: 100

Query :: Data request, read-out kinase still bound, per cent of control, for `CN(C)C/C=C/C(=O)Nc1cccc(Nc2ncc3c(n2)N(C)c2ccccc2C(=O)N3C)c1`
Result :: 0

Query :: Data request, read-out kinase still bound, per cent of control, for `O=C(NC1CC1)c1cccc(-c2ccc3c(NC(=O)C4CC4)n[nH]c3c2)c1`
Result :: 13

###

# study target: BTK (human)
# test method notes: KINOMEscan competition binding
# setup conditions: compound 10.0 µM
quantity: kinase still bound, per cent of control (%)
Note: unit % is implicit; provide only the numeric part.

Worked set:
[[record]]
structure_smiles_string = "Cc1cc([C@@H](C)Nc2ccccc2C(=O)O)c2nc(N3CCOCC3)cc(=O)n2c1"
study_target = "BTK (human)"
quantity = "kinase still bound, per cent of control"
value_observed = 97

[[record]]
structure_smiles_string = "CCCS(=O)(=O)Nc1ccc(F)c(C(=O)c2c[nH]c3ncc(-c4ccc(Cl)cc4)cc23)c1F"
study_target = "BTK (human)"
quantity = "kinase still bound, per cent of control"
value_observed = 93


Attention now shifts to the item below.
Query :: Data request, read-out kinase still bound, per cent of control, for `CCOc1cc2ncc(C#N)c(Nc3ccc(OCc4ccccn4)c(Cl)c3)c2cc1NC(=O)/C=C/CN(C)C`
Result :: 4.4
